Cited source for all entries: ChEMBL document CHEMBL5058577

Tested on: U2OS
ASSAY_OVERVIEW: Multiplex assay against U2OS
Type: toxicity, cell-based
APPLIED_CONDITIONS: human, 12 h, 10 µM, compound concentration 10 uM, replicate 1
Listing: Population Normal (%) of selected compounds
Just the number in %, nothing appended.

Incoming: Please give the measured Population Normal (%) for this compound: O=C(NCCO)c1cccc(-c2cc(Nc3ccc(OC(F)(F)F)cc3)ncn2)c1
Outgoing: 95

Incoming: # query: Population Normal (%) of entry C[C@H]1[C@H]2CC[C@H]3[C@@H]4CC=C5C[C@@H](N(C)C)CC[C@]5(C)[C@H]4CC[C@]23CN1C
Outgoing: 97

Incoming: Which Population Normal (%) is reported for this compound? N[C@@]1(C(=O)O)CO[C@H]2[C@H](C(=O)O)[C@H]21
Outgoing: 99

Incoming: Quick one: Population Normal (%) for CCCC(CCC)C(=O)O ?
Outgoing: 95

// switching to the query compound
Incoming: Value lookup for Population Normal (%); key = CC(C)(C)c1ccc(S(=O)(=O)Nc2ccc(Cl)cc2C(=O)c2cc[n+]([O-])cc2)cc1
Outgoing: 98

----------
Tested on: U2OS
ASSAY_OVERVIEW: Multiplex assay against U2OS
Assay type: toxicity, cell-based
APPLIED_CONDITIONS: human, 48 h, 1 µM, compound concentration 1 uM, replicate 1
Mark class 1 only when Population Mitotic Cells (%) stays strictly below 10%. Values equal to the cut-off are class 0.

Worked examples, 10 molecules total:
Incoming: Identify whether the molecule N[C@@]1(C(=O)O)CO[C@H]2[C@H](C(=O)O)[C@H]21 records Population Mitotic Cells (%) below 10%.
Outgoing: class 1

Incoming: Would you kindly verify if Population Mitotic Cells (%) of CN(C)c1ccnc2sc3c(=O)n(N4CCCCCC4)cnc3c12 is strictly less than 10%?
Outgoing: class 1

Incoming: Dear reviewer, please state whether Cc1ccc(/C(=C\CN2CCCC2)c2ccccn2)cc1 has Population Mitotic Cells (%) strictly beneath 10%.
Outgoing: class 0

Incoming: Consider CC[C@H]1OC(=O)[C@H](C)[C@@H](O[C@H]2C[C@@](C)(OC)[C@@H](O)[C@H](C)O2)[C@H](C)[C@@H](O[C@@H]2O[C@H](C)C[C@H](N(C)C)[C@H]2O)[C@@]2(C)CC(C)=C(O2)[C@H](C)[C@@H](O)[C@]1(C)O . Does its Population Mitotic Cells (%) lie strictly below 10%?
Outgoing: class 0

Incoming: Please check: Population Mitotic Cells (%) for CCNC1(C(N)=O)CCN(c2ncnc3c2nc(-c2ccccc2Cl)n3-c2ccc(Cl)cc2)CC1 , strictly under 10% or not?
Outgoing: class 0

Incoming: hey, is Population Mitotic Cells (%) for c1cc(OCCCN2CCCCC2)ccc1CN1CCCCC1 lower than 10% or not?
Outgoing: class 0

Incoming: Take the molecule C[C@@H]1C[C@H]2[C@@H]3CCC4=CC(=O)C=C[C@]4(C)[C@@]3(F)[C@@H](O)C[C@]2(C)[C@@]1(O)C(=O)CO and say whether its Population Mitotic Cells (%) is less than 10%.
Outgoing: class 0

Incoming: A record lists CN1CCN(c2nc3cc(C(F)(F)F)ccc3n3cccc23)CC1.O=C(O)/C=C\C(=O)O.O=C(O)/C=C\C(=O)O . Is its Population Mitotic Cells (%) below 10%?
Outgoing: class 0

Incoming: For Cc1ccccc1C(=O)Nc1ccc(C(=O)N2CCCC(N(C)C)c3ccccc32)cc1.Cl (configuration not stated) , is the recorded Population Mitotic Cells (%) below the cut-off of 10%?
Outgoing: class 0

Incoming: Does the reported Population Mitotic Cells (%) of the following molecule sit strictly below 10%? CCCN1CCC[C@@H]2Cc3n[nH]cc3C[C@H]21.Cl [QUINPIROLE HYDROCHLORIDE]
Outgoing: class 0

Others:
Incoming: Is Population Mitotic Cells (%) of O=C(NCC(=O)N1CC[C@H](N[C@H]2CC[C@@](O)(c3ccc(-c4ncccn4)cn3)CC2)C1)c1cccc(C(F)(F)F)c1 strictly below 10%?
Outgoing: class 0

Incoming: Identify whether the molecule O=C(O)Cc1ccccc1Nc1c(Cl)cccc1Cl records Population Mitotic Cells (%) below 10%.
Outgoing: class 1

Incoming: Determine if CN(C)CCCc1cc(C(=O)Nc2ccc(-c3ccncc3)cc2)ccc1O.Cl.Cl shows Population Mitotic Cells (%) strictly lower than 10%.
Outgoing: class 0

Incoming: Population Mitotic Cells (%) strictly < 10% for this molecule? O=C(O)c1cc2ccccc2c(Cc2c(O)c(C(=O)O)cc3ccccc23)c1O
Outgoing: class 0

Incoming: Population Mitotic Cells (%) strictly < 10% for this molecule? Cc1ccc(F)cc1C(=O)Nc1ccc(C(=O)N2Cc3cccn3Cc3ccccc32)c(Cl)c1
Outgoing: class 0

Incoming: Is Population Mitotic Cells (%) strictly under 10% for the entry CCCC(CCC)C(=O)O ?
Outgoing: class 0
